Measured herbicidal effect rating, CYPIR accompanies every entry in the list below.
tested on: Cyperus iria; assay: Preemergence weed control under flooded paddy conditions, CYPIR (Rice Flatsedge); format: in vivo; conditions: Rate 0.0320 kg/ha; preemergence weeds, flooded paddy; rated three to four weeks after treatment; note: meaning of each grade not given here
Give the figure only, with no unit attached.

>>> value("COC(=O)C(C)Oc1ccc(OC)cc1-c1nsc2ccc(-n3c(=O)cc(C(F)(F)F)n(C)c3=O)cc12 (centres unmarked)")
0.0

Dear colleague, I am looking for the recorded herbicidal effect rating, CYPIR of the following compound: CC(Br)c1nsc2ccc(-n3c(=O)cc(C(F)(F)F)n(C)c3=O)cc12 (centres unmarked)
4.0

# query: herbicidal effect rating, CYPIR of entry COC(=O)COc1ccc(OC)cc1-c1nsc2ccc(-n3c(=O)cc(C(F)(F)F)n(C)c3=O)cc12
7.0

// herbicidal effect rating, CYPIR lookup, key: Cn1c(C(F)(F)F)cc(=O)n(-c2ccc3snc(C(=O)Oc4ccc(F)cc4)c3c2)c1=O
0.0

Recorded herbicidal effect rating, CYPIR of CSc1ccc(C)cc1-c1nsc2ccc(-n3c(=O)cc(C(F)(F)F)n(C)c3=O)cc12 , please.
0.0

Dear colleague, I am looking for the recorded herbicidal effect rating, CYPIR of the following compound: Cn1c(C(F)(F)F)cc(=O)n(-c2ccc3snc(C(=O)NS(=O)(=O)CCl)c3c2)c1=O
9.0

Quick one: herbicidal effect rating, CYPIR of CONC(=O)COc1ccc(C)cc1-c1nsc2ccc(-n3c(=O)cc(C(F)(F)F)n(C)c3=O)cc12 ?
8.5

Which measured herbicidal effect rating, CYPIR value corresponds to CN(O)C(=O)COc1ccccc1-c1nsc2ccc(-n3c(=O)cc(C(F)(F)F)n(C)c3=O)cc12 ?
0.0

###

tested on: Cyperus serotinus, Rottb.; experiment: Preemergence weed control under flooded paddy conditions, CYPSE (Flatsedge); type: in vivo; details: 0.2500 kg/ha, preemergence, rated three to four weeks after treatment; note: meaning of each grade not given here
assay_readout: herbicidal effect rating, CYPSE
Form: value (number only, do not type unit).

>>> value("COC(=O)C(C)Oc1c(C)cc(C)cc1-c1nsc2ccc(-n3c(=O)cc(C(F)(F)F)n(C)c3=O)cc12 (centres unmarked)")
2.0
>>> value("COC(=O)COc1ccc(C)cc1-c1nsc2ccc(-n3c(=O)cc(C(F)(F)F)n(C)c3=O)cc12")
0.0

// lookup herbicidal effect rating, CYPSE | system=Cyperus serotinus, Rottb. | key= COC(=O)C(C)Oc1cc(C)c(C)cc1-c1nsc2ccc(-n3c(=O)cc(C(F)(F)F)n(C)c3=O)cc12 (centres unmarked)
7.0

GET /values?readout=herbicidal effect rating, CYPSE&system=Cyperus serotinus, Rottb.&item= Cc1ccc(OCC(=O)OCCN(C)C)c(-c2nsc3ccc(-n4c(=O)cc(C(F)(F)F)n(C)c4=O)cc23)c1
0.0

What is its herbicidal effect rating, CYPSE for Cyperus serotinus, Rottb.? Entry: Cc1ccc(OC(C)C#N)c(-c2nsc3ccc(-n4c(=O)cc(C(F)(F)F)n(C)c4=O)cc23)c1 (centres unmarked)
0.0

###

system: Oryza sativa, (L.) Tebonnet; assay: Rice tolerance to post-transplant applications under flooded paddy conditions (Example 188), ORYSAT (Rice, Tebonnet); conditions: Rate 0.0620 kg/ha, rated three to four weeks after treatment
assay_readout: herbicidal effect rating, ORYSAT (rice tolerance)
Please reply with the value in numeric form only.

Guide cases for herbicidal effect rating, ORYSAT (rice tolerance), answers given:
>>> value("CCOc1cccc(-c2nsc3ccc(-n4c(=O)cc(C(F)(F)F)n(C)c4=O)cc23)c1 [Example 327]")
3.0
>>> value("Cc1ccc(OCC(=O)OCC2(c3ccccc3)CC2)c(-c2nsc3ccc(-n4c(=O)cc(C(F)(F)F)n(C)c4=O)cc23)c1 [Example 517]")
0.0
>>> value("CC(C)S(=O)(=O)NC(=O)c1nsc2ccc(-n3c(=O)cc(C(F)(F)F)n(C)c3=O)cc12 [Example 362]")
3.0
>>> value("COc1ccc(OC)c(-c2nsc3ccc(-n4c(=O)cc(C(F)(F)F)n(C)c4=O)cc23)c1 [Example 333]")
5.0
>>> value("COC(=O)COc1ccc(C)cc1-c1noc2ccc(-n3c(=O)cc(C(F)(F)F)n(C)c3=O)c(Cl)c12 [Example 261]")
0.0
>>> value("COc1c(-c2nsc3ccc(-n4c(=O)cc(C(F)(F)F)n(C)c4=O)cc23)ccc(C)c1C [Example 267]")
5.0

Here's the next entry for you.
# herbicidal effect rating, ORYSAT (rice tolerance) lookup, item Cn1c(C(F)(F)F)cc(=O)n(-c2ccc3snc(C(=O)C(C)(C)C)c3c2)c1=O [Example 432]
4.0

Values from patent EP0908457B1
